test: In vivo pharmacokinetic evaluation in mice; set-up: unit not given here; details: mouse, plasma, 2 mg/kg, intravenous injection, 2 mpk, read-out: Clearance rate CL (converted)

>  <MOLECULE>
CC(=O)N(C)[C@H]1CCN(C(=O)c2cnc(N[C@H](C)c3ccc(C(F)(F)F)cc3F)nc2)C1 [Compound 41-P2]

>  <clearance>
0.112

$$$$

----------
assay: In vivo pharmacokinetic evaluation in mice; details: mouse, plasma, 2 mg/kg, intravenous injection, 2 mpk, read-out: Distributed solvent Vd

>  <COMPOUND>
CC(=O)N(C)[C@H]1CCN(C(=O)c2cnc(N[C@H](C)c3ccc(C(F)(F)F)cc3F)nc2)C1 [Compound 41-P2]

>  <Vd [L/kg]>
1.26

$$$$

----------
assay: In vivo pharmacokinetic evaluation in mice; conditions: mouse, plasma, po, 5 mg/kg, intragastric administration, 5 mpk, read-out: Peak concentration Cmax

>  <COMPOUND>
CC(=O)N(C)[C@H]1CCN(C(=O)c2cnc(N[C@H](C)c3ccc(C(F)(F)F)cc3F)nc2)C1 [Compound 41-P2]

>  <Cmax>
1540 ng/mL

$$$$

----------
test: In vivo pharmacokinetic evaluation in mice; settings: mouse, plasma, 2 mg/kg, intravenous injection, 2 mpk, read-out: Peak concentration Cmax

>  <MOLECULE>
CC(=O)N(C)[C@H]1CCN(C(=O)c2cnc(N[C@H](C)c3ccc(C(F)(F)F)cc3F)nc2)C1 [Compound 41-P2]

>  <Cmax, ng/mL>
2140

$$$$

----------
biological target: CYP3A4 (Homo sapiens, UniProt P08684); experiment: in vitro; settings: microsomes
Sequence (P08684 2-503 limits assumed): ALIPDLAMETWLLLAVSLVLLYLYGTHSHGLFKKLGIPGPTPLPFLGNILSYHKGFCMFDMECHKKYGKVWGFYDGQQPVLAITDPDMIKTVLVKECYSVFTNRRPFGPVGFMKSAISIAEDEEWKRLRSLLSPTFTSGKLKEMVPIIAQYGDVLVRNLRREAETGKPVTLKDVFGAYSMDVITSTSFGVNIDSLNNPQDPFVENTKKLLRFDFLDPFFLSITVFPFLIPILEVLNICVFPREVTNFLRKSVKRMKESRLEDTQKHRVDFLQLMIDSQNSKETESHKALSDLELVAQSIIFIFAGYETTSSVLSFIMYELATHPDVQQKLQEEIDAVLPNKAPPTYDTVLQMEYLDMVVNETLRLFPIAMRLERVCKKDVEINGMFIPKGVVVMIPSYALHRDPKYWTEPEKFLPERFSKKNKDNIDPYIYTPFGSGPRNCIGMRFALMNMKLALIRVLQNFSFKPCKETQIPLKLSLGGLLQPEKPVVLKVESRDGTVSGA

>  <COMPOUND>
CC(=O)N(C)[C@H]1CCN(C(=O)c2cnc(N[C@H](C)c3ccc(C(F)(F)F)cc3F)nc2)C1 [Compound 41-P2]

>  <IC50 at 10 min>
> 50 µM

$$$$

----------
test: In vivo pharmacokinetic evaluation in mice; details: mouse, plasma, 2 mg/kg, intravenous injection, 2 mpk, read-out: Area under the curve AUC0-7 h

>  <COMPOUND>
CC(=O)N(C)[C@H]1CCN(C(=O)c2cnc(N[C@H](C)c3ccc(C(F)(F)F)cc3F)nc2)C1 [Compound 41-P2]

>  <READING UNIT>
ng·h/mL

>  <AUC(0-t)>
4960

$$$$

----------
experiment: In vitro liver microsome stability assay, human; format: in vitro ADME; details: liver microsomes, read-out: T1/2 Human
QUANTITY NAME: half-life at 1 μM

>  <COMPOUND>
CC(=O)N(C)[C@H]1CCN(C(=O)c2cnc(N[C@H](C)c3ccc(C(F)(F)F)cc3F)nc2)C1 [Compound 41-P2]

>  <OBS VALUE>
> 4.66 h

$$$$

----------
molecular target: human plasma Vanin-1 (Homo sapiens (Human), UniProt O95497); assay: Human plasma Vanin-1 enzyme activity inhibition assay; conditions: 100-fold diluted human plasma, substrate 25 μM, reading at 30th minute; read-out: hPlasma IC50
Sequence (O95497 22-513): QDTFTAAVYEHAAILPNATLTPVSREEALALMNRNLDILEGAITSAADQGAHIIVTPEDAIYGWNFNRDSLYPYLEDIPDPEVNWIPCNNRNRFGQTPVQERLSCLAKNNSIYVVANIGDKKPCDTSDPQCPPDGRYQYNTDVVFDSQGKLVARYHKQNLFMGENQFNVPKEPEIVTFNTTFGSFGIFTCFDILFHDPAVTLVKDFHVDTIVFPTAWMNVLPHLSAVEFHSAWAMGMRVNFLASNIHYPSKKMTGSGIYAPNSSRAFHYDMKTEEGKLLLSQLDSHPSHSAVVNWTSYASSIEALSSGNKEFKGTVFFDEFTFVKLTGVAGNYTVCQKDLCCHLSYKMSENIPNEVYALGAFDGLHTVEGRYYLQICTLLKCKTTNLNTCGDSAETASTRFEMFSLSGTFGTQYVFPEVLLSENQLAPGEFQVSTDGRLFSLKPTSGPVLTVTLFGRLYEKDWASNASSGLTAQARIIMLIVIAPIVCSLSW
pIC50: −log10 of the molar value.

>  <COMPOUND>
O=C(c1cnc(NCc2ccc(F)cc2F)nc1)N1CCC2(CCOCC2)C1 [Compound 12]

>  <pIC50>
8.10

$$$$
>  <COMPOUND>
CC(Nc1ncc(C(=O)N2CCC3(CCOCC3)C2)cn1)c1ccccc1 (centres unmarked) [Compound 6]

>  <pIC50>
8.80

$$$$

----------
experiment: In vitro liver microsome stability assay, mouse; assay type: in vitro ADME; settings: liver microsomes, read-out: T1/2 Mouse
QUANTITY NAME: half-life at 1 μM (h)

>  <COMPOUND>
CC(=O)N(C)[C@H]1CCN(C(=O)c2cnc(N[C@H](C)c3ccc(C(F)(F)F)cc3F)nc2)C1 [Compound 41-P2]

>  <READING UNIT>
h

>  <OBS VALUE>
1.65

$$$$

----------
assay: In vitro liver microsome stability assay, rat; format: in vitro ADME; details: liver microsomes, read-out: T1/2 Rat

>  <COMPOUND>
CC(=O)N(C)[C@H]1CCN(C(=O)c2cnc(N[C@H](C)c3ccc(C(F)(F)F)cc3F)nc2)C1 [Compound 41-P2]

>  <half-life at 1 μM / h>
3.31

$$$$

----------
target: CYP 1A2 (Homo sapiens (Human)); assay: CYP enzyme inhibitory activity IC50 assay (cocktail method), 1A2; assay type: in vitro ADME; settings: microsomes 0.1 mg/mL, probe Phenacetin
Sequence (P05177 whole entry): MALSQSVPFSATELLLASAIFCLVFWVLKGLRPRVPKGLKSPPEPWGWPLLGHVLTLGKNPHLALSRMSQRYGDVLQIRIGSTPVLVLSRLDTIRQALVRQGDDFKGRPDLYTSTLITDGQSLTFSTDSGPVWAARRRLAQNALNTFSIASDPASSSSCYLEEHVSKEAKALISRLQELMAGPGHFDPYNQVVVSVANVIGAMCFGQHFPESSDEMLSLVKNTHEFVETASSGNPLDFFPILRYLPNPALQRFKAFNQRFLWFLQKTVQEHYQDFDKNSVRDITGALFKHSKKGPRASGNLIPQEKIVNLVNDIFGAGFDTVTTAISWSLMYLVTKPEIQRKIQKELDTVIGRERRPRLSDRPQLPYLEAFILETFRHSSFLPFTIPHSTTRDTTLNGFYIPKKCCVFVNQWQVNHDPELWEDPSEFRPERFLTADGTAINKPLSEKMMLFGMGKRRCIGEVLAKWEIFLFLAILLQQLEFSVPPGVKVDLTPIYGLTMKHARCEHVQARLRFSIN
pIC50: −log10 of the molar value.
QUANTITY NAME: pIC50

>  <MOLECULE>
CC(=O)N(C)[C@H]1CCN(C(=O)c2cnc(N[C@H](C)c3ccc(C(F)(F)F)cc3F)nc2)C1 [Compound 41-P2]

>  <SYSTEM TESTED>
CYP 1A2 (Homo sapiens (Human))

>  <QUANTITY NAME>
pIC50

>  <OBS VALUE>
< 4.30

$$$$

----------
molecular target: CYP 2D6 (Homo sapiens (Human), UniProt P10635); experiment: CYP enzyme inhibitory activity IC50 assay (cocktail method), 2D6; format: in vitro ADME; conditions: microsomes 0.1 mg/mL, probe Dextromethorphan
Sequence (P10635 whole entry): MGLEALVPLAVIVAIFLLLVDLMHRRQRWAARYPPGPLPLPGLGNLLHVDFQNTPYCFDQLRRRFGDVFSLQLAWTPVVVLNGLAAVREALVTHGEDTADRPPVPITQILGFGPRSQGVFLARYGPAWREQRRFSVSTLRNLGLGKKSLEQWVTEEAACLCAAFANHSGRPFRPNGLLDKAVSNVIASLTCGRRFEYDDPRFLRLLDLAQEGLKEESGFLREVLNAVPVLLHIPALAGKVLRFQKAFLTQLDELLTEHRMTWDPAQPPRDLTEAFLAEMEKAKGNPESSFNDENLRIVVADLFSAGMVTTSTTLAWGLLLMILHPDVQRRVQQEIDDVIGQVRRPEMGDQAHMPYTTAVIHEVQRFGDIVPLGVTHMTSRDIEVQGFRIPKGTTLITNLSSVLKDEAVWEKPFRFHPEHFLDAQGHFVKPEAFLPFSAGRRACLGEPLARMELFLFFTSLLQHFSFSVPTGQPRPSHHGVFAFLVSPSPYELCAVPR
pIC50: −log10 of the molar value.

>  <MOLECULE>
CC(=O)N(C)[C@H]1CCN(C(=O)c2cnc(N[C@H](C)c3ccc(C(F)(F)F)cc3F)nc2)C1 [Compound 41-P2]

>  <pIC50>
< 4.30

$$$$

----------
test: In vivo pharmacokinetic evaluation in mice; details: mouse, plasma, oral, intragastric administration 5 mpk vs intravenous 2 mpk, read-out: Bioavailability F %

>  <COMPOUND>
CC(=O)N(C)[C@H]1CCN(C(=O)c2cnc(N[C@H](C)c3ccc(C(F)(F)F)cc3F)nc2)C1 [Compound 41-P2]

>  <bioavailability [%]>
86

$$$$

----------
assay: In vivo pharmacokinetic evaluation in mice; conditions: mouse, plasma, po, 5 mg/kg, intragastric administration, 5 mpk, read-out: Half-life T1/2 (converted)

>  <MOLECULE>
CC(=O)N(C)[C@H]1CCN(C(=O)c2cnc(N[C@H](C)c3ccc(C(F)(F)F)cc3F)nc2)C1 [Compound 41-P2]

>  <READING UNIT>
h

>  <half-life>
5.6

$$$$
